Kindly state Decomposition efficiency of daidzin family in roasted soy flour for each of the entries shown.
Test system: Crude diglycosidase
Experiment: Examination of pH in the conversion into isoflavone aglycons by diglycosidase using soybean materials
Type: biochemical, Penicillium multicolor IAM7153
Settings: pH8.5, heat treatment of enzyme no, reaction time 3 h, 55° C.
Protocol: A substrate solution of 450 μL was prepared by suspending 50 mg of each soybean material (roasted soy flour (manufactured by Fuji Shokuryo K.K.), soymilk (manufactured by Gitoh Shokuhin K.K.), defatted soybean (manufactured by Fuji Seiyu K.K.), concentrated soybean protein (manufactured by Fuji Seiyu K.K.)), and adjusting the pH to 2 to 11 with hydrochloric acid or sodium hydroxide. […]
Give bare numbers.

• O=c1c(-c2ccc(O)cc2)coc2cc(O)ccc12 [daidzein] = 46.4
• O=c1c(-c2ccc(O)cc2)coc2cc(O[C@@H]3O[C@H](CO)[C@@H](O)[C@H](O)[C@H]3O)ccc12 [daidzin] = 13.3

Attention now shifts to the item below.
Request - read-out Decomposition efficiency of daidzin family in roasted soy flour | tested on Crude diglycosidase | compound CC(=O)OC[C@H]1O[C@@H](Oc2ccc3c(=O)c(-c4ccc(O)cc4)coc3c2)[C@H](O)[C@@H](O)[C@@H]1O [acetyldaidzin, 6″-O-acetyldaidzin] 40.3
